Tested on: CYP1A2
Assay: in vitro
Format: in vitro ADME, human
Conditions: human, CYP1A2 mRNA fold induction, donor one, 100 µM
parameter: fold induction at 48 h, 100 µM
Please reply with the value in numeric form only.

## Task Return reported fold induction at 48 h, 100 µM; argument: COc1ccc2[nH]c([S+]([O-])Cc3ncc(C)c(OC)c3C)nc2c1 (stereo not shown) [Omeprazole, reference compound]
## Result 39.6

----------
System: CYP2B6
Assay: in vitro
Format: in vitro ADME, human
Conditions: human, CYP2B6 mRNA fold induction, donor two, 10 µM
parameter: fold induction at 48 h, 10 µM
Please reply with the value in numeric form only.

## Task Return reported fold induction at 48 h, 10 µM; argument: COc1c(N2CCNC(C)C2)c(F)cc2c(=O)c(C(=O)O)cn(C3CC3)c12 (stereo not shown) [Gatifloxacin, reference compound]
## Result 0.685
